- ASSAY NAME: Cytotoxicity against human HepG2 cells after 72 hrs by MTT assay
- Assay type: cell-based
Below, each of the molecules is paired with its reported CC50 at 72 h value.

# annotated cases, reported CC50 at 72 h shown
COc1cccc(Sc2nc(C(Cl)(Cl)Cl)nc3ccccc23)c1    12 µM
Clc1ccccc1Sc1nc(C(Cl)(Cl)Cl)nc2ccccc12    26 µM
Fc1cccc(Sc2nc(C(Cl)(Cl)Cl)nc3ccccc23)c1    15.5 µM
ClC(Cl)(Cl)c1nc(Sc2ccccc2)c2ccccc2n1    35 µM
Cc1cccc(Sc2nc(C(Cl)(Cl)Cl)nc3ccccc23)c1    35 µM
Cc1ccccc1Sc1nc(C(Cl)(Cl)Cl)nc2ccccc12    52 µM
COc1ccccc1Sc1nc(C(Cl)(Cl)Cl)nc2ccccc12    32 µM
Clc1nc(C(Cl)(Cl)Cl)nc2ccccc12    > 125 µM

Request: Looking for the measured CC50 at 72 h of "Clc1ccc(Sc2nc(C(Cl)(Cl)Cl)nc3ccccc23)c(Cl)c1" , can you help?
Result: 18.2 µM

Request: # CC50 at 72 h lookup, item "FC(F)(F)c1ccc(Sc2nc(C(Cl)(Cl)Cl)nc3ccccc23)cc1"
Result: 13 µM

Request: Can you look up the measured CC50 at 72 h of "Fc1ccc(Sc2nc(C(Cl)(Cl)Cl)nc3ccccc23)cc1" for me?
Result: > 30 µM

Request: Given "FC(F)(F)c1nc(Sc2ccc(Cl)cc2)c2ccccc2n1" , state its recorded CC50 at 72 h.
Result: > 15 µM

Request: Name the reported CC50 at 72 h value associated with the molecule "Clc1ccc(Sc2ncnc3ccccc23)cc1"
Result: 16.7 µM
